The origin of these recorded values is ChEMBL document CHEMBL4028890.

- SYSTEM_UNDER_TEST: 5-hydroxytryptamine receptor 2C (Homo sapiens) (UniProt P28335)
- PROCEDURE_TEXT: Positive allosteric modulation of human 5-HT2C receptor expressed in human HeLa-K1 cells assessed as potentiation of 5-HT-induced inositol monophosphate release at 10 uM after 20 mins by HTRF assay relative to control
- Type: functional, cell-based
Decision: Activity >= 6% yields true, all other cases yield false.

Some solved cases for reference:
[[record]]
given_smiles = "c1cncc(NCc2cn(Cc3ccncc3)c3ccccc23)c1"
class_label = "true"

[[record]]
given_smiles = "Brc1cccc(Cn2cc(CNc3cccnc3)c3ccccc32)c1"
class_label = "true"

[[record]]
given_smiles = "c1ccc(Cn2cc(CNc3cnccn3)c3ccccc32)cc1"
class_label = "false"


Decide: is the reported value of Activity for Fc1ccc(Cn2cc(CNc3cccnc3)c3ccccc32)c(F)c1 equal to or greater than 6%?
true

Decide: is the reported value of Activity for Cc1ncccc1NCc1cn(Cc2ccccc2)c2ccccc12 equal to or greater than 6%?
false

Decide: is the reported value of Activity for c1ccc(Cn2cc(CNc3ccncn3)c3ccccc32)cc1 equal to or greater than 6%?
false

* * *

# key: entry, value: Activity
- SYSTEM_UNDER_TEST: UniProtKB P28335
- PROCEDURE_TEXT: Positive allosteric modulation of human 5-HT2C receptor expressed in human HeLa-K1 cells assessed as potentiation of 5-HT-induced inositol monophosphate release at 10 uM after 20 mins by HTRF assay relative to control
- Format: functional, cell-based
Give the value, in units of %, as a plain number.

[[record]]
given_smiles = "COc1cccc(Cn2cc(CNc3cccnc3)c3ccccc32)c1"
system_under_test = "UniProtKB P28335"
recorded_result = 0

[[record]]
given_smiles = "COc1ccccc1Cn1cc(CNc2cccnc2)c2ccccc21"
system_under_test = "UniProtKB P28335"
recorded_result = 0

[[record]]
given_smiles = "Brc1ccccc1Cn1cc(CNc2cccnc2)c2ccccc21"
system_under_test = "UniProtKB P28335"
recorded_result = 0

[[record]]
given_smiles = "N#Cc1ccccc1Cn1cc(CNc2cccnc2)c2ccccc21"
system_under_test = "UniProtKB P28335"
recorded_result = 7

[[record]]
given_smiles = "c1ccc(Cn2cc(CNc3cccnn3)c3ccccc32)cc1"
system_under_test = "UniProtKB P28335"
recorded_result = 9


GET /values?readout=Activity&item= c1ccc(Cn2cc(CNc3ccnnc3)c3ccccc32)cc1
0

* * *

- SYSTEM_UNDER_TEST: 5-hydroxytryptamine receptor 2C (Homo sapiens)
- Sequence (P28335 whole entry): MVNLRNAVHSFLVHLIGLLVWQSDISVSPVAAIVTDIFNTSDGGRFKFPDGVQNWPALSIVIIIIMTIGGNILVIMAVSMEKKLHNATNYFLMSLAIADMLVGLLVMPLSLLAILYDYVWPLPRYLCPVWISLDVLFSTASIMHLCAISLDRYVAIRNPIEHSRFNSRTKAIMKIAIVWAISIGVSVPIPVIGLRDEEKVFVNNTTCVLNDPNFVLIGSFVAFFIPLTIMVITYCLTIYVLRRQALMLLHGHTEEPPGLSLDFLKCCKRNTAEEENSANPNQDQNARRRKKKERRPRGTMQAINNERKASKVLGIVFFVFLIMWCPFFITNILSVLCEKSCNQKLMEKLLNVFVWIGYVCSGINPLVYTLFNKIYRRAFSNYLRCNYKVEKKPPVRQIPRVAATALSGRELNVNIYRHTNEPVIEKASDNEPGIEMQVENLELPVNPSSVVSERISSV
- PROCEDURE_TEXT: Positive allosteric modulation of human 5-HT2C receptor expressed in human HeLa-K1 cells assessed as potentiation of 5-HT-induced inositol monophosphate release after 20 mins by HTRF assay
- Format: functional, cell-based
MEASURE: EC50 (nM)
Give the value, in units of nM, as a plain number.

GET /values?readout=EC50&item= c1ccc(Cn2cc(CNc3cccnc3)c3ccccc32)cc1
16

* * *

- PROCEDURE_TEXT: Ratio of drug level in brain to plasma in Wistar rat at 10 mg/kg, ip measured up to 6 hrs
- Assay type: ADME, organism-based
- SETTINGS: read-out: BPR
MEASURE: Kp at 6 h
Form field (numeric): enter value without unit.

GET /values?readout=Kp at 6 h&item= c1ccc(Cn2cc(CNc3cccnc3)c3ccccc32)cc1
3.8
